- protocolNotes: Acute Toxicity Test
- studyConditions: mouse, in vivo, po
Catalogue of LD50 readings, one per entry.
observationType: LD50

[[record]]
compound = "CC(C)COC(=O)OCN1C(=O)CN(CCN2CC(=O)N(COC(=O)OCC(C)C)C(=O)C2)CC1=O"
observationtype = "LD50"
recordedvalue = "> 1000 mg/kg"

[[record]]
compound = "COC(=O)OCN1C(=O)CN(CCN2CC(=O)N(COC(=O)OC)C(=O)C2)CC1=O"
observationtype = "LD50"
recordedvalue = "> 2000 mg/kg"

[[record]]
compound = "O=C1CN(CCN2CC(=O)N(CN3CCOCC3)C(=O)C2)CC(=O)N1CN1CCOCC1 [reference compound]"
observationtype = "LD50"
recordedvalue = "> 1000 mg/kg"

[[record]]
compound = "CC(=O)OCN1C(=O)CN(CCN2CC(=O)N(COC(C)=O)C(=O)C2)CC1=O"
observationtype = "LD50"
recordedvalue = "> 2000 mg/kg"


Data credit: patent US4650799A
